# reported isoTOP-ABPP ratio Q96HE7_C241; entries follow
Target: cysteines in MDA-MB-231 and Ramos cells (Homo sapiens, UniProt Q96HE7)
Sequence (Q96HE7 24-468): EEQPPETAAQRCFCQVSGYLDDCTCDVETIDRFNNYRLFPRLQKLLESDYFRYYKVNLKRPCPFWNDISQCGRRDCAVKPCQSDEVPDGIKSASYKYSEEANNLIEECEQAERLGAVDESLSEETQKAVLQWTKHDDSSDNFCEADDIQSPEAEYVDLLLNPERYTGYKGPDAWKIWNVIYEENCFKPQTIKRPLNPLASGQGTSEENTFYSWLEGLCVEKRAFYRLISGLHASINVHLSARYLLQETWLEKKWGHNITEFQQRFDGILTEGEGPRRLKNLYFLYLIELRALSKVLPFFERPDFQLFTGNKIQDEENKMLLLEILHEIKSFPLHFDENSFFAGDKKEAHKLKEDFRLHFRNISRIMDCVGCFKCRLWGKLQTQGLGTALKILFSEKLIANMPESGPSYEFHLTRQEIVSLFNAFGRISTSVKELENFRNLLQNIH
Experimental Protocol: Competitive isoTOP-ABPP in situ (fragment-treated cells)
Format: cell-based
Cond: 200 μM, insitu, 231
Reply with just the number.

Some solved cases for reference:
>>> endpoint_result("C=CC(=O)N(Cc1cccnc1)c1cc(C(F)(F)F)cc(C(F)(F)F)c1 [compound 31]")
0.7
>>> endpoint_result("O=C(CCl)NCCc1c[nH]c2ccccc12 [compound 13]")
1.5
>>> endpoint_result("CC(C)CCOCCNC(=O)CCl [compound 27]")
0.9
>>> endpoint_result("COc1ccccc1OCCNC(=O)CCl [compound 28]")
1.1
>>> endpoint_result("O=C(CCl)NC12CC3CC(CC(C3)C1)C2 [compound 21]")
1.6

Query: For Cc1ccc(C=C(C#N)C(=O)NCCN2CCOCC2)cc1 [compound 41] , what is its reported isoTOP-ABPP ratio Q96HE7_C241?
Response: 0.7

Query: Consider next the compound O=C(CCl)Nc1cccc2ncccc12 [compound 51] in the same way.
Response: 1.7

Query: Consider next the compound O=C(CCl)N1CCN(S(=O)(=O)c2ccccc2F)CC1 [compound 10] in the same way.
Response: 2.0

Query: Consider next the compound C=CC(=O)Nc1cc(F)c(N2CCN(C(=O)OC(C)(C)C)CC2)c(F)c1 [compound 38] in the same way.
Response: 1.6

Query: Consider next the compound O=C(CCl)NC(=O)NC12CC3CC(CC(C3)C1)C2 [compound 12] in the same way.
Response: 16.4

Query: Consider next the compound CC1CCc2ccccc2N1C(=O)CCl (centres unmarked) [compound 45] in the same way.
Response: 2.1

meta.source: patent US10670605B2
